- procedureSummary: Hydrogen peroxide (H2O2) inhibition assay (fluorescence, DCF/horseradish peroxidase)
- Assay type: biochemical
- experimentalParameters: dopamine as reducing substrate; test compound 0.4 μM; lower values = greater inhibition of H2O2
readoutName: Fe-DA % (cf. 0.4 uM Fe/DA; cf. CQ, CQ = 100%)
Just the number in %, nothing appended.

Quick one: give measured Fe-DA % (cf. 0.4 uM Fe/DA; cf. CQ, CQ = 100%) for CN(Cc1cccc(Cl)c1)Cc1cc(=O)n2cccc(O)c2n1 [Compound 1518]
49

Quick one: give measured Fe-DA % (cf. 0.4 uM Fe/DA; cf. CQ, CQ = 100%) for CN(Cc1cc(=O)n2cccc(O)c2n1)C1CCCCC1 [Compound 1521]
50

Quick one: give measured Fe-DA % (cf. 0.4 uM Fe/DA; cf. CQ, CQ = 100%) for O=C(NCc1ccc(Cl)cc1Cl)c1cnc2c(O)cccn2c1=O [Compound 1452]
49
